Tested on: porcine alveolar macrophages (PAMs)
Assay: Cytotoxicity by EMA staining, PAMs
Format: cell-based
Conditions: read-out: CC50 (50% cytotoxicity), PAMs, 24 h, ± S.D.
measured-parameter: CC50 (µM)

INSERT INTO measurements (compound, measurement_unit, reported_measurement) VALUES
  ('CN[C@@H]1[C@H](O[C@@H]2OC[C@@H](O)[C@H](O)[C@H]2O)[C@@H](O)[C@H](O[C@H]2c3cc(C)c(C(=O)N[C@H](C)C(=O)O)c(O)c3-c3c(cc4c(c3O)C(=O)c3cc(OC)cc(O)c3C4=O)[C@@H]2O)O[C@@H]1C [PRM-A, pradimicin-A, reference compound]', 'µM', 18.1);
